Target: T1, Gal80 (UniProt P04387 1-435, limits assumed)
T1 construct: Cy3/Cy5 labelled on arrays, immobilised for SPR and ELISA
T1 sequence (looked up): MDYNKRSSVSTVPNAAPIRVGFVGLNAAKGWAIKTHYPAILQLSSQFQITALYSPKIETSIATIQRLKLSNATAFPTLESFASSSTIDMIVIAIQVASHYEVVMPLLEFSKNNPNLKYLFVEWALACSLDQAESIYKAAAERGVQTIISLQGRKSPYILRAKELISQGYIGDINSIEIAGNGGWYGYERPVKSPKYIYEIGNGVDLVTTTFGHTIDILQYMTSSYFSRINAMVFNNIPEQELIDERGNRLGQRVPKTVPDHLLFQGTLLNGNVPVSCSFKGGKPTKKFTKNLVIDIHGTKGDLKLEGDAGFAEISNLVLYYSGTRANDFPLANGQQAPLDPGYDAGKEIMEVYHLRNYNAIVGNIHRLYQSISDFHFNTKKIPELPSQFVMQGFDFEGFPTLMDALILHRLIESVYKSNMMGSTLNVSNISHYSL
Assay: light-directed peptide array, 25 µM labelled GAL80 with 1 mg/mL E. coli lysate; relative to template BP2;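 note: array read-out by fluorescence scanning, library of 10,000 peptides varied at four positions with ten residue choices, each feature present in triplicate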
Readout name: Fold Enhancement (fold)
Could you give me the number in fold? Just the number is fine.

**Q:** Give a short answer stating reported Fold Enhancement for EGEDTEGKKSKLGSC (Synthesised in situ on a light-directed array) [BP2 variant EGEDTEGKKSKLGSC] .
**A:** 10.4

**Q:** Give a short answer stating reported Fold Enhancement for EGEITEGKKSKLGSC (Synthesised in situ on a light-directed array) [BP2 variant EGEITEGKKSKLGSC] .
**A:** 11.1

**Q:** Give a short answer stating reported Fold Enhancement for EGEITEGKLSKKGSC [BP2 variant EGEITEGKLSKKGSC] .
**A:** 9.72

**Q:** Give a short answer stating reported Fold Enhancement for EGEKTEGKKSKLGSC (Synthesised in situ on a light-directed array) [BP2 variant EGEKTEGKKSKLGSC] .
**A:** 9.81

**Q:** Give a short answer stating reported Fold Enhancement for EGEITEGKGSKKGSC (Synthesised in situ on a light-directed array) [BP2 variant EGEITEGKGSKKGSC] .
**A:** 9.87

**Q:** Give a short answer stating reported Fold Enhancement for EGEITEGKKSKGGSC (Synthesised in situ on a light-directed array) [BP2 variant EGEITEGKKSKGGSC] .
**A:** 10.8

**Q:** Give a short answer stating reported Fold Enhancement for EGEDTEGKKSKEGSC (Synthesised in situ on a light-directed array) [BP2 variant EGEDTEGKKSKEGSC] .
**A:** 10.1

**Q:** Give a short answer stating reported Fold Enhancement for EGEITEGKKSKEGSC (Synthesised in situ on a light-directed array) [BP2 variant EGEITEGKKSKEGSC] .
**A:** 10.9

**Q:** Give a short answer stating reported Fold Enhancement for EGEWTEGKKSKRGSC (Synthesised in situ on a light-directed array) [BP2 variant EGEWTEGKKSKRGSC] .
**A:** 11

**Q:** Give a short answer stating reported Fold Enhancement for EGEDTEGKKSKRGSC (Synthesised in situ on a light-directed array) [BP2 variant EGEDTEGKKSKRGSC] .
**A:** 10.4

**Q:** Give a short answer stating reported Fold Enhancement for EGEWTEGKKSKGGSC (Synthesised in situ on a light-directed array) [BP2 variant EGEWTEGKKSKGGSC] .
**A:** 11.1

**Q:** Give a short answer stating reported Fold Enhancement for EGEDTEGKKSKTGSC (Synthesised in situ on a light-directed array) [BP2 variant EGEDTEGKKSKTGSC] .
**A:** 10.2

**Q:** Give a short answer stating reported Fold Enhancement for EGEITEGKKSKRGSC (Synthesised in situ on a light-directed array) [BP2 variant EGEITEGKKSKRGSC] .
**A:** 10.5

**Q:** Give a short answer stating reported Fold Enhancement for EGEWTEGKKSKIGSC (Synthesised in situ on a light-directed array) [BP2 variant EGEWTEGKKSKIGSC] .
**A:** 10.4

**Q:** Give a short answer stating reported Fold Enhancement for EGEWTEGKKSKLGSC (Synthesised in situ on a light-directed array) [BP2 variant EGEWTEGKKSKLGSC] .
**A:** 10.7

**Q:** Give a short answer stating reported Fold Enhancement for EGEDTEGKKSKGGSC (Synthesised in situ on a light-directed array) [BP2 variant EGEDTEGKKSKGGSC] .
**A:** 10.8

**Q:** Give a short answer stating reported Fold Enhancement for EGEDTEGKKSKIGSC (Synthesised in situ on a light-directed array) [BP2 variant EGEDTEGKKSKIGSC] .
**A:** 10.4

**Q:** Give a short answer stating reported Fold Enhancement for EGEWTEGKKSKTGSC (Synthesised in situ on a light-directed array) [BP2 variant EGEWTEGKKSKTGSC] .
**A:** 10.5

**Q:** Give a short answer stating reported Fold Enhancement for EGEKTEGKKSKEGSC (Synthesised in situ on a light-directed array) [BP2 variant EGEKTEGKKSKEGSC] .
**A:** 9.7

**Q:** Give a short answer stating reported Fold Enhancement for EGEITEGKKSKIGSC (Synthesised in situ on a light-directed array) [BP2 variant EGEITEGKKSKIGSC] .
**A:** 11.3

**Q:** Give a short answer stating reported Fold Enhancement for EGEKTEGKKSKTGSC (Synthesised in situ on a light-directed array) [BP2 variant EGEKTEGKKSKTGSC] .
**A:** 8.5

**Q:** Give a short answer stating reported Fold Enhancement for EGEITEGKKSKTGSC (Synthesised in situ on a light-directed array) [BP2 variant EGEITEGKKSKTGSC] .
**A:** 10.6

**Q:** Give a short answer stating reported Fold Enhancement for EGEITEGKKSKSGSC (Synthesised in situ on a light-directed array) [BP2 variant EGEITEGKKSKSGSC] .
**A:** 9.91

**Q:** Give a short answer stating reported Fold Enhancement for EGEKTEGKKSKGGSC (Synthesised in situ on a light-directed array) [BP2 variant EGEKTEGKKSKGGSC] .
**A:** 9.24

**Q:** Give a short answer stating reported Fold Enhancement for EGEWTEGKKSKEGSC (Synthesised in situ on a light-directed array) [BP2 variant EGEWTEGKKSKEGSC] .
**A:** 10.7
